target.entity: Chemoattractant receptor-homologous molecule expressed on Th2 cells (Cavia porcellus, UniProt Q56D28)
Sequence (Q56D28 whole entry): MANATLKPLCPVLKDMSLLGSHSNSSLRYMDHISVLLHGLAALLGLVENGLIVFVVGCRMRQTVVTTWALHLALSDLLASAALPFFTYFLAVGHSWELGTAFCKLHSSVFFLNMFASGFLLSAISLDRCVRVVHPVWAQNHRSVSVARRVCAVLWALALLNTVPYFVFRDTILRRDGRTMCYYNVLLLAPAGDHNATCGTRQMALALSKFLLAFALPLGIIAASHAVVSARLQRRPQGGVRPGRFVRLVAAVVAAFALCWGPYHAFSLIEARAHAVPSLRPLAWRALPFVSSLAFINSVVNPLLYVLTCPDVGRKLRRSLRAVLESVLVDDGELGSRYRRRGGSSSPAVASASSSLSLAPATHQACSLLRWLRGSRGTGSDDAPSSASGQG
endpoint.label: IC50 (nM)
Field format: number, assumed nM, no unit text.

input: Look up IC50 of `CCS(=O)(=O)c1ccc(-c2cc(C(F)(F)F)ccc2OCC(=O)O)c(C)c1` and report it.
output: 63

###

protocol.notes: Fraction unbound in dog plasma
Format: ADME, cell-free, Canis lupus familiaris
endpoint.label: fraction unbound
In your answer, state the number alone without any accompanying words.

input: Look up fraction unbound of `CCS(=O)(=O)c1ccc(-c2cc(C(F)(F)F)ccc2OCC(=O)O)c(C)c1` and report it.
output: 0.03

###

protocol.notes: Intrinsic clearance in human liver microsomes
conditions.used: liver microsomes
Kindly state microsomal CLint for each of the entries shown.
Field format: number, assumed µL/min/mg, no unit text.

input: Look up microsomal CLint of `COc1ccc(-c2cc(C(F)(F)F)ccc2OCC(=O)O)cc1` and report it.
output: 12

input: Look up microsomal CLint of `CCS(=O)(=O)c1ccc(-c2cc(Cl)ccc2OCC(=O)O)c(Cl)c1` and report it.
output: 7

input: Look up microsomal CLint of `CN(c1ccc(-c2cc(C(F)(F)F)ccc2OCC(=O)O)cc1)S(C)(=O)=O` and report it.
output: 13

###

protocol.notes: Fraction unbound in human plasma
Format: ADME, cell-free
endpoint.label: fraction unbound
In your answer, state the number alone without any accompanying words.

input: Look up fraction unbound of `CCS(=O)(=O)c1ccc(-c2cc(C(F)(F)F)ccc2OCC(=O)O)c(C)c1` and report it.
output: 0.046

###

target.entity: Prostaglandin D2 receptor 2 (Homo sapiens)
Sequence (Q9Y5Y4 whole entry): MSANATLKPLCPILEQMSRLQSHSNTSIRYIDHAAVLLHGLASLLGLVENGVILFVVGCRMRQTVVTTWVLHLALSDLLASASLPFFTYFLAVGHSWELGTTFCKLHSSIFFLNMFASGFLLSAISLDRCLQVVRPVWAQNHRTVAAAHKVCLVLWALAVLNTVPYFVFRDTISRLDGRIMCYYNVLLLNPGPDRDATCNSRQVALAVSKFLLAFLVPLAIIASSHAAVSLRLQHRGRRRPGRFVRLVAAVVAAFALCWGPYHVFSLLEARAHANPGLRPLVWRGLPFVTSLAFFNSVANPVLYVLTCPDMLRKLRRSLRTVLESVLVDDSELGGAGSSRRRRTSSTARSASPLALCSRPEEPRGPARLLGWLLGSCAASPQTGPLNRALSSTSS
protocol.notes: Displacement of [3H]-PGD2 from CRTh2 receptor by scintillation proximity assay
pIC50: −log10 of the molar value.
Class assignment keyed on pIC50, ranges low (below 7), moderate (7 to below 9), high (9 or more)

input: Please let me know in which category the item `N#Cc1ccc(OCC(=O)O)c(-c2ccccc2)c1` belongs.
output: low

input: Please let me know in which category the item `CCS(=O)(=O)c1ccc(-c2cc(C(F)(F)F)ccc2OCC(N)=O)c(C)c1` belongs.
output: low

input: Please let me know in which category the item `CCS(=O)(=O)c1ccc(-c2cc(C(F)(F)F)ccc2OC(C)(C)C(=O)O)c(C)c1` belongs.
output: low

input: Please let me know in which category the item `CCS(=O)(=O)c1ccc(-c2cc(Cl)ccc2OCC(=O)O)c(F)c1` belongs.
output: moderate

input: Please let me know in which category the item `CCSc1ccc(-c2cc(C(F)(F)F)ccc2OCC(=O)O)cc1` belongs.
output: moderate

input: Please let me know in which category the item `CCS(=O)(=O)c1cccc(-c2cc(C(F)(F)F)ccc2OCC(=O)O)c1` belongs.
output: moderate

input: Please let me know in which category the item `Cc1ccc(OCC(=O)O)c(-c2ccccc2)c1` belongs.
output: low

input: Please let me know in which category the item `O=C(O)COc1ccc(-c2nccs2)cc1-c1ccccc1` belongs.
output: low

input: Please let me know in which category the item `CS(=O)(=O)c1ccc(-c2cc(C(F)(F)F)ccc2OCC(=O)O)c(Cl)c1` belongs.
output: high

input: Please let me know in which category the item `CN(c1ccc(-c2cc(C(F)(F)F)ccc2OCC(=O)O)c(Cl)c1)S(C)(=O)=O` belongs.
output: high

input: Please let me know in which category the item `O=C(O)COc1ccc(Br)cc1-c1ccccc1` belongs.
output: low

input: Please let me know in which category the item `Cc1ccc(C#N)cc1-c1cc(C(F)(F)F)ccc1OCC(=O)O` belongs.
output: high

input: Please let me know in which category the item CCC(Oc1ccc(C(F)(F)F)cc1-c1ccc(S(=O)(=O)CC)cc1C)C(=O)O (centres undefined) belongs.
output: low

input: Please let me know in which category the item `O=C(O)COc1ccc([N+](=O)[O-])cc1-c1ccccc1` belongs.
output: low

input: Please let me know in which category the item `CCS(=O)(=O)c1ccc(-c2cc(Cl)ccc2OCC(=O)O)c(C)c1` belongs.
output: moderate
